test: protein stability index of a GFP-peptide fusion (GPS, HEK-293T) (PSI 1-6); higher = more stable; details: treatment: MLN4924 1 uM, 8 h; c terminus: a fixed tail appended;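 also: 24-mer peptide tiles fused after GFP, lentivirally expressed, FACS-sorted into six equal bins by GFP/DsRed ratio, decoded by Illumina sequencing, PSI is the read-weighted mean bin number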
ENDPOINT: protein stability index
One number for each entry.

INSERT INTO results (primary_sequence, measured) VALUES
  ('EKKGLHEKALQVLVDQSKKANSPL [VPS39]', 4.67),
  ('TEFKELDGLREALANLRGLSEEER [CCDC89]', 4.85),
  ('DEGDEPMPIPEDLSTTSGGQQSSK [IKZF1]', 5.56);

Hi! Can you tell me protein stability index for each of these sequences?
1. DDWEDDYDYPEEEQLSGAGYRVSA [EID1]
2. TAEAEELKPFFMKEVGSHFDDFVT [SOAT1]
3. CADVLFILQDQEHIFAHRIYLATS [RHOBTB1]

5.04
3.94
2.89

Hi! Can you tell me protein stability index for each of these sequences?
1. RVEESALRALREKLFAHSSDLLSE [PPEF2]
2. RAMKIPFTNDKIINLPVEEFNELL [NFE2L1]
3. HLAPSEAKAADSPTRNDLESGLGH
4. YTFHARFGEVRPYFYLGGARGAGP [TRIM35]
5. NCGKSFSRLTALTLHQRTHTEERP [ZNF449]

1: 3.27; 2: 3.01; 3: 5.37; 4: 2.28; 5: 3.36

Hi! Can you tell me protein stability index for each of these sequences?
1. ASLAAAKKQLADETLLKVDLENRC [LMNB1]
2. HVLHHGTGKWYELQDLQVTDILPQ [USP39]
3. HMLNQVESKVKDILSKVQKNHVGK [FAM98B]
4. ECYDPRTQQWTAICPLKERRFGAV [GAN]

[4.46, 2.95, 2.36, 2.62]

----------
experiment: protein stability index of a GFP-peptide fusion (GPS, HEK-293T) (PSI 1-6); higher = more stable; conditions: treatment: MLN4924 1 uM, 8 h; c terminus: a fixed tail appended
For each entry below, report its protein stability index value.
Give bare numbers.

INSERT INTO assay_data (primary_sequence, endpoint, measured) VALUES
  ('SHLCSCLAMLALLSPLSLAQYDSW [LOXL2]', 'protein stability index', 2.96),
  ('RVFRVTFLMLAVSLTVPLLGAMML [APMAP]', 'protein stability index', 2.4),
  ('IWAFLDVSFVERILKSQKERQCAL [FBXO39]', 'protein stability index', 2.24),
  ('RMYCSDLLNPNLKDTVICAMKITQ [SPACA3]', 'protein stability index', 2.05);

Hi! Can you tell me protein stability index for each of these sequences?
1. VQSEIFLHESYCMDTSHQPLLPAP [LYSMD4]
2. EAANLLIPAVGSSLSEALDLIESD [MYBL2]
3. MSSYTVAGRNVLRWDLSPEQIKTR [NLN]
4. ESQVKSLCEKAKEILTKESNVQEV [PPP2CA]
5. IGALTYFAQADALKGTLVSTLKEV [ACSBG2]
6. HLMPFRQHCRQSLASRIRSNKKML [KLHL14]

2.76
4.72
3.04
5.18
2.25
2.34

----------
test: protein stability index of a GFP-peptide fusion (GPS, HEK-293T) (PSI 1-6); higher = more stable; conditions: treatment: DMSO; c terminus: a fixed tail appended
For each entry below, report its protein stability index value.
Answers are plain numbers.

INSERT INTO assay_data (primary_sequence, measured) VALUES
  ('PSHYDVQDRFRIELSEEGAEGRVV [MOSPD3]', 4.63);

Hi! Can you tell me protein stability index for each of these sequences?
1. LGGEDGEKELISMECYDIYSKTWT [GAN]
2. LVGKPKIFIIQACRGNQHDVPVIP [CASP6]
3. SSWDIDGRATKRRKKSGDLKKAKV [FBXO34]

3.31
2.56
4.8

Hi! Can you tell me protein stability index for each of these sequences?
1. PLEAMYMQCPVIAVNSGGPLESID [ALG2]
2. LTLAQGAGEEDPSGMVTIITGLPL [SMG5]
3. QFLNDRLASYLEKVRQLERDNAEL [KRT33B]
4. GLPGSFIKEVQKGGPADLAGLEDE [PDZK1]
5. ELDEPQHEMVAHRHRQEVLCKEMV [ZSCAN9]
6. IKSVLWQTLQALNFCHIHNCIHRD [CDKL4]
7. IDSYDPSTGEVYCRVPNSGKDEIE [ALDH8A1]
8. GKLVLSSLPKRLCLVCGDVASGYH [ESRRA]

1: 3.61; 2: 2.98; 3: 3.18; 4: 5.59; 5: 4.72; 6: 3.15; 7: 4.97; 8: 2.38

Hi! Can you tell me protein stability index for each of these sequences?
1. YQEASNLEQFVTRFLLKETLNQLQ [NECAB1]
2. RQKREAAARKKYNLLQDSSTSDSD [C18orf25]
3. AQAIDFINRCSVLRQLGCKDGKNW [SPOPL]
4. NRFVQLSGRPHLPGKKKIRWDPVR [KLHDC10]
5. SAKPASLRLLQHTPSARRNYRIAG [C6orf223]
6. TPSQEHLKHQTVYRLLKCAPRGKN [FEM1A]

[2.66, 5.17, 2.29, 2.5, 3.43, 3.61]

Hi! Can you tell me protein stability index for each of these sequences?
1. NQKCQLRLLKTLETSRSHDLEAVV [ATP23]
2. SYLSLTSEDNTSFDRKKKSISLMY [SLA]
3. EIANEDRKHALERFEQEAVAVDSN [CCDC89]
4. SSLEFTELLTLVNRKVSQRRVDFC [CASP6]
5. VVEVTKGILEHVDSASPVEDTSND [M1AP]
6. TNTHPPASLPSQKYPGPQAEGDSE [CHGA]
7. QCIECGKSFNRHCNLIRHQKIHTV [ZSCAN9]

[3.14, 2.94, 5.01, 2.37, 5.54, 5.43, 3.37]

----------
For each entry below, report its protein stability index value.
test: protein stability index of a GFP-peptide fusion (GPS, HEK-293T) (PSI 1-6); higher = more stable; conditions: treatment: DMSO; c terminus: a fixed tail appended
One number for each entry.

Hi! Can you tell me protein stability index for each of these sequences?
1. PGAGDPAPGIGPPEPWPGGCTGDE [MYCL]
2. DQSDEGSSSQKEESPSTLQVLPDS [MAGEA10]
3. AESHASKDVAIDMMDSRTSQQLQL [STX5]
4. LALCQRYYHRGHVDPANDTFDIDP [MCOLN1]

[5.38, 5.66, 4.98, 3.11]

Hi! Can you tell me protein stability index for each of these sequences?
1. ILIQHQKAKHFKCHICHKKLYTGP [ZNF207]
2. RNTPIEALCENFPEEMATYLRYVR [CSNK1G1]
3. AQHKDRSTQLEMQLEKPKPVKPVT [MNAT1]
4. IVDKCTELLREGRASATTTITTAA [ZBTB22]

2.44
2.84
4.71
3.78

Hi! Can you tell me protein stability index for each of these sequences?
1. RSKESKDCSGLVLLCLFFGIPWEA [PCDHGA10]
2. STSLSFLDSCNSLTPKSTPVKTLP [MYBL2]
3. GVGKAIEEELQEIASEPTNKHLFY [MATN2]
4. LPPYPPYFEGAPFPHPLWLRDTYK [PWWP2B]

1. 3.15
2. 3.9
3. 4.75
4. 2.54

----------
For each entry below, report its protein stability index value.
assay: protein stability index of a GFP-peptide fusion (GPS, HEK-293T) (PSI 1-6); higher = more stable; conditions: treatment: DMSO; c terminus: a fixed tail appended
Give bare numbers.

Solved entries (count: 5):
INSERT INTO assay_data (primary_sequence, endpoint, measured) VALUES
  ('GHSFCRPCLCLSWEEAQSPANCPA [TRIM43]', 'protein stability index', 3.47),
  ('ECYDPRTQQWTAICPLKERRFGAV [GAN]', 'protein stability index', 2.69),
  ('LLESSSSYKNLTLKFHKLVNVTIH [MCOLN1]', 'protein stability index', 2.58),
  ('PKELSSFSFSMKGHEKTAKSKTRS [DLC1]', 'protein stability index', 4.73),
  ('RMQALLIRERILGPSHPDTSYYIR [FEM1C]', 'protein stability index', 2.2);

Hi! Can you tell me protein stability index for each of these sequences?
1. IFEDRIRGIDIIKWMERYLRDKTV [TRAF3IP2]
2. ALRVQQLVAKELGQTGTRLTPADK [AUP1]
3. NLLFKPPVESHIQKNKKILKSAKD [KMT2E]
4. MEAVLNELVSVEDLLKFEKKFQSE [FIS1]
5. LTRHTKKTHSQELMKESLQTGDLL [PLAGL1]
6. VKAEPFIKWLKEAEEESSGGEEED [EIF5]
7. PPSRAPTAAPPPPPPSRPSVAVPP [WASL]

[2.02, 4.04, 3.61, 3.69, 4.35, 5.3, 4.77]

Hi! Can you tell me protein stability index for each of these sequences?
1. DEAQGACLQQKQVVAEAQTRVSQL [LRRC45]
2. AEMAEDYPRYPDIHDLDLTLLNPR [CLCN6]

[5.23, 4.05]
